# Test system: LOX IMVI melanoma
# Measurement Description: NCI-60 one-dose screen, 48 h
# Condition Details: 10 µM unless noted
The panel holds about 83,000 compounds, 20% with a hit somewhere; the sample as a whole holds those more often. Calls of active or inactive are those of the source. The calls were made as follows: active = growth percent below 10; inactive = the rest.
Hello, when you answer, please use one of the following outcomes: active, inactive

Use the examples below as a reference point.
CCC(CC)N1C(=O)/C(=c2\sc3n(c2=O)C2C(NN=3)N(CC)C(=O)N2CC)c2ccccc21 (centres undefined) :: inactive
CCOC(=O)c1c(NC(=O)c2cccc(C(F)(F)F)c2)sc2c(CN3CCN(C)CC3)c(O)ccc12 :: active
Cc1ccc(-n2cc(/C=C/C(=O)c3ccc(S(C)(=O)=O)cc3)c(-c3ccc(S(C)(=O)=O)cc3)n2)cc1 :: inactive

Note: attention shifts to another entry.
Called result for `O=C(/C=C1\C=CN(CCCCCCF)c2ccccc21)n1ccc2ccccc21`
inactive
